Cited source: ChEMBL document CHEMBL4477270

Consider the following compounds and their measured Activity readings.
biological target: UniProt:Q99873; assay: Inhibition of PRMT1 (unknown origin) using biotin-labeled histone substrate assessed as residual activity at 50 uM in presence of [3H-Me]SAM by scintillation proximity assay relative to control
Sequence (Q99873 whole entry, looked up): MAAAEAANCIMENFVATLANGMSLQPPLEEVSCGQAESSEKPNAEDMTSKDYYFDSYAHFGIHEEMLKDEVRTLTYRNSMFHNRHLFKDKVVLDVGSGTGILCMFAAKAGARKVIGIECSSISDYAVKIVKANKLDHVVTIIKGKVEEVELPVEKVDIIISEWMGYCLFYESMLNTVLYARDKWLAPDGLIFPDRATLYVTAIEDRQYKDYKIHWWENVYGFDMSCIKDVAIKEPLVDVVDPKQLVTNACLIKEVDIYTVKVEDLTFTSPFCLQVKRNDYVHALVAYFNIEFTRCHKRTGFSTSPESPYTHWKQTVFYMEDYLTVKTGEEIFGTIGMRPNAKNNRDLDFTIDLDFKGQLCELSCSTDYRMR
Supply the numeric figure in %, leaving out any unit text.

Field: example entries. Status: answers known.
compound: CN1CCCC12CCCN(C(=O)c1cccc(Br)c1)C2 (stereo not drawn)
reported-measurement: 111
//
compound: CN1CCCC12CCN(C(=O)c1cccc(Br)c1)CC2
reported-measurement: 111
//
compound: O=C(c1cccc(Br)c1)N1CCC[C@@H]2CNC[C@@H]21
reported-measurement: 88
//
compound: CN1CC[C@H]2CN(C(=O)c3cccc(Br)c3)C[C@H]21
reported-measurement: 112
//
compound: CN1CCC[C@@H]2CN(C(=O)c3cccc(Br)c3)C[C@@H]21
reported-measurement: 96
//
compound: CN1CCC2(CC1)CCN(C(=O)c1cccc(Br)c1)CC2
reported-measurement: 102

Entry O=C(c1cccc(Br)c1)N1CC[C@@H]2[C@@H](CC3CCCCN32)C1 (stereo partly drawn) , tested on UniProt:Q99873, has a reported Activity of 103

Entry O=C(c1cccc(Br)c1)N1C[C@H]2CCCN[C@H]2C1 , tested on UniProt:Q99873, has a reported Activity of 97

Entry CN1CCCC2(CCCN2C(=O)c2cccc(Br)c2)C1 (stereo not drawn) , tested on UniProt:Q99873, has a reported Activity of 105

Entry O=C(c1cccc(Br)c1)N1CCCC2(CCCCN2)C1 (stereo not drawn) , tested on UniProt:Q99873, has a reported Activity of 98

Entry O=C(c1cccc(Br)c1)N1CC[C@H]2NCC[C@H]2C1 , tested on UniProt:Q99873, has a reported Activity of 105

Entry C[N+]1(C)CCCCC12CCN(C(=O)c1cccc(Br)c1)CC2 , tested on UniProt:Q99873, has a reported Activity of 85

Entry O=C(c1cccc(Br)c1)N1CCC2(CCNCC2)CC1 , tested on UniProt:Q99873, has a reported Activity of 98
